biological target: T1, Anti-PSMA Fab (SEQ ID NOs: 19, 20); experiment: phage binding ELISA; biotinylated PSMA Fab on neutravidin plate pre-incubated with PSMA antigen (competitor), anti-M13 HRP detection;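 note: competition ELISA where clonal phage supernatants were added to wells preincubated with PSMA antigen or with blocking buffer only as control, bound phage read via HRP-coupled anti-M13 antibody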
T1 construct: also called 006 PSMA Fab
measuredAttribute: Anti-PSMA Fab signal in the presence of PSMA
Numbers only.

Report Anti-PSMA Fab signal in the presence of PSMA for every entry below.
1. YFVQCRPAWMCEGF (peptide, not shown: large carriers, Clonal phage supernatant) [Phage-1791]
2. VQIQCRPAWMCLGF (peptide, not shown: large carriers, Clonal phage supernatant) [Phage-1794]
3. TAHHCKPAWMCTGF (peptide, not shown: large carriers, Clonal phage supernatant) [Phage-1796]
4. EDILCKPKWMCEGF (peptide, not shown: large carriers, Clonal phage supernatant) [Phage-1801]

1: 0.339; 2: 0.127; 3: 0.103; 4: 0.109

What measured Anti-PSMA Fab signal in the presence of PSMA goes with AEVKCIPQWMCQGF (peptide, not shown: large carriers, Clonal phage supernatant) [Phage-1795] ?
0.0852
